Tested on: E. coli BW25113
protocol description: Bacterial cytological profiling (BCP)
Format: cell-based, Escherichia coli
experimental setup: BCP
Listed here are molecules together with their documented DIC width.

molecule	system name	DIC width
O=S(=O)(NC[C@H]1CC[C@@H](c2ccc(-c3ccc(F)nc3)cc2)N1)c1cccc2cnccc12 [LEI-801]	E. coli BW25113	1.085
O=S(=O)(NC[C@@H]1CC[C@H](c2ccc(-c3cccnc3)cc2)N1)c1cccc2cnccc12 [LEI-800]	E. coli BW25113	1.163
CC1(C)S[C@@H]2[C@H](NC(=O)[C@H](N)c3ccccc3)C(=O)N2[C@H]1C(=O)O [AMP, ampicillin, reference compound]	E. coli BW25113	1.143
CO[C@H]1/C=C/O[C@@]2(C)Oc3c(C)c(O)c4c(O)c(c(/C=N/N5CCN(C)CC5)c(O)c4c3C2=O)NC(=O)/C(C)=C\C=C\[C@H](C)[C@H](O)[C@@H](C)[C@@H](O)[C@@H](C)[C@H](OC(C)=O)[C@@H]1C [RIF, rifampicin, reference compound]	E. coli BW25113	1.327

----------
System: E. coli W3110
protocol description: MIC by broth microdilution
Type: cell-based, Escherichia coli
experimental setup: Escherichia coli, W3110
Description: MIC was determined by broth microdilution. Single-colony cultures were grown to exponential phase (OD600 of 0.5) aerobically at 37 °C. In case of strains from the Keio collection, 50 µg ml^−1 kanamycin was supplemented to the media to ascertain a homogeneous population. The bacterial suspensions were diluted 100-fold in CAMHB and 50 µl was added to a twofold serial dilution series of test compounds (50 µl per well) in polypropylene 96-well microtitre plates to reach a volume of 100 µl. […]
observation type: MIC (µg/mL)

> print(dat)
                                   compound  data.value
1  COc1cc(Cc2cnc(N)nc2N)cc(OC)c1OC [TMP, trimethoprim]        0.16
2  C[C@@H](O)[C@H]1C(=O)N2C(C(=O)O)=C(S[C@@H]3CN[C@H](C(=O)N(C)C)C3)[C@H](C)[C@H]12 [Meropenem]        0.02
3  CC(C)(O/N=C(\C(=O)N[C@@H]1C(=O)N2C(C(=O)[O-])=C(C[n+]3ccccc3)CS[C@H]12)c1csc(N)n1)C(=O)O [Ceftazidime]         0.4
4  O=C(N[C@H](CO)[C@H](O)c1ccc([N+](=O)[O-])cc1)C(Cl)Cl [Chloramphenicol]           4
5  C[C@@H](O)[C@H]1C(=O)N2C(C(=O)O)=C(SCCN=CN)C[C@H]12 [Imipenem]         0.1
6  O=C(O)c1cn(C2CC2)c2cc(N3CCNCC3)c(F)cc2c1=O [CIP, ciprofloxacin]      0.0078

----------
Test system: A. baumannii ATCC BAA747
protocol description: MIC by broth microdilution
Assay type: cell-based
experimental setup: Acinetobacter baumannii, ATCCBAA747; read-out: MIC A. baumannii ATCC BAA747
Protocol: MIC was determined by broth microdilution. Single-colony cultures were grown to exponential phase (OD600 of 0.5) aerobically at 37 °C. In case of strains from the Keio collection, 50 µg ml^−1 kanamycin was supplemented to the media to ascertain a homogeneous population. […] The MIC was determined as the lowest concentration at which no visible bacterial growth was observed as compared with the inoculum controls from the median of a minimum of triplicates.
Listed here are compounds together with their documented MIC.
observation type: MIC (µM)

> print(dat)
                  compound.structure.string  observation.type  comparator  data.value
1  O=S(=O)(NC[C@@H]1CC[C@H](c2ccc(-c3cccnc3)cc2)N1)c1cccc2cnccc12               MIC           =          25
2  O=S(=O)(NC[C@@H]1CC[C@H](c2ccc(-c3ccc(F)cc3)cc2)N1)c1cccc2cnccc12               MIC           =          25
3  O=S(=O)(NCCNCc1ccc(-c2ccc(F)nc2)cc1)c1cccc2cnccc12               MIC           >          50
4  O=S(=O)(NCCNCc1ccc(-c2cccnc2)cc1)c1cccc2cnccc12               MIC           >          50

Value source: paper PMC11374673
